Entry source: ChEMBL document CHEMBL4304820

Target: D(2) dopamine receptor (Homo sapiens)
Sequence (P14416 whole entry): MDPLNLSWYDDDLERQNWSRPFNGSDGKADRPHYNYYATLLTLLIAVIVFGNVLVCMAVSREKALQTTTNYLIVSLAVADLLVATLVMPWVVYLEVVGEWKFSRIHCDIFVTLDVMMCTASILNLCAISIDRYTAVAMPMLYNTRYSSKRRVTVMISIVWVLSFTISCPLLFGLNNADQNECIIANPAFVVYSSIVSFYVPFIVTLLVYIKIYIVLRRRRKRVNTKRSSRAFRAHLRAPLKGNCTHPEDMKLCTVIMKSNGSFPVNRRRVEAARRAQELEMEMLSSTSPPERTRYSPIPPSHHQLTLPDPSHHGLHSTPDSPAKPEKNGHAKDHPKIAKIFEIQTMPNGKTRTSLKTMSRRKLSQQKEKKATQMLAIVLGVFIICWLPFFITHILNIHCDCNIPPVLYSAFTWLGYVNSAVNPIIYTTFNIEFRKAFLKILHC
Experiment: Displacement of [3H]raclopride from human cloned D2 receptor expressed in HEK293 cells by radioligand binding assay
Type: cell-based

- input_smiles: "O=C1c2ccccc2S(=O)(=O)N1CCCCN1CCN(c2ncccn2)CC1"
  Ki / µM: 1.22

----------
Molecular target: D(2) dopamine receptor (Rattus norvegicus)
Sequence (P61169 whole entry): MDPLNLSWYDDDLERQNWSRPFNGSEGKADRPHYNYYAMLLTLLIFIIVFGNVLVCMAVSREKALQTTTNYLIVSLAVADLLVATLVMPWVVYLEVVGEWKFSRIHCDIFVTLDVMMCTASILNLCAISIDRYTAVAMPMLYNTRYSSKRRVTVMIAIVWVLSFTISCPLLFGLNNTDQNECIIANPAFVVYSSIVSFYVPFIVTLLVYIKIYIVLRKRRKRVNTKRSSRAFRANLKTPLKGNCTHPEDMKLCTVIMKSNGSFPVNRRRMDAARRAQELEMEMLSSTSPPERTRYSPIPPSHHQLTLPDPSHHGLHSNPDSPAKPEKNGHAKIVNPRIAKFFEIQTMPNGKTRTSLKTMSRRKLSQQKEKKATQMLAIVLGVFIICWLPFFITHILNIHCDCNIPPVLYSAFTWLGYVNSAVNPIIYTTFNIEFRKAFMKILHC
Assay: Displacement of [3H]raclopride from D2 receptor in rat brain striatum incubated for 60 mins by radioligand binding assay
pKi: −log10 of the molar value.

- compound: "O=c1ccc2ccc(OCCCCN3CCN(c4cccc5sccc45)CC3)cc2[nH]1 [BREXPIPRAZOLE]"
  pKi: 8.42

----------
Entries and their measured pKi follow.
Target sequence: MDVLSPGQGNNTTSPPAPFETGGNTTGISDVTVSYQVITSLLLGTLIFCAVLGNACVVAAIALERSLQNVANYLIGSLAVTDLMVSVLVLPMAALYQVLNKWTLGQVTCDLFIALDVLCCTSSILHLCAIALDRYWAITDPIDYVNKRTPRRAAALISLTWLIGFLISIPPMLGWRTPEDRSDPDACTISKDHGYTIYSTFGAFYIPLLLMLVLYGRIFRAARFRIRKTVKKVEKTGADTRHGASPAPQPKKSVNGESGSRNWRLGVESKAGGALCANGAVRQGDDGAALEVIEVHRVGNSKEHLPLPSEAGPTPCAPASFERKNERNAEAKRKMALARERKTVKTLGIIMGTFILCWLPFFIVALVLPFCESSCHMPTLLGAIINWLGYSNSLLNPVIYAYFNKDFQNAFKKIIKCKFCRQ
pKi: −log10 of the molar value.

- input_smiles: "O=C1c2ccccc2S(=O)(=O)N1CCCCCCN1CCN(c2cccc(Cl)c2)CC1"
  pKi: 7.68
- input_smiles: "COc1ccc(N2CCN(CCCCCCN3C(=O)c4ccccc4S3(=O)=O)CC2)cc1"
  pKi: 6.49
- input_smiles: "O=C1c2ccccc2S(=O)(=O)N1CCCCCCN1CCN(c2ccccc2C(F)(F)F)CC1"
  pKi: 6.81
- input_smiles: "O=C1c2ccccc2S(=O)(=O)N1CCCCCCN1CCN(c2ccccc2)CC1"
  pKi: 7.70
- input_smiles: "O=C1c2ccccc2S(=O)(=O)N1CCCCCCN1CCN(c2ccc(Cl)c(Cl)c2)CC1"
  pKi: 7.27
- input_smiles: "O=C1c2ccccc2S(=O)(=O)N1CCCCCCN1CCN(c2ccccn2)CC1"
  pKi: 7.89

----------
Biological target: 5-hydroxytryptamine receptor 2A (Homo sapiens, UniProt P28223)
Sequence (P28223 whole entry): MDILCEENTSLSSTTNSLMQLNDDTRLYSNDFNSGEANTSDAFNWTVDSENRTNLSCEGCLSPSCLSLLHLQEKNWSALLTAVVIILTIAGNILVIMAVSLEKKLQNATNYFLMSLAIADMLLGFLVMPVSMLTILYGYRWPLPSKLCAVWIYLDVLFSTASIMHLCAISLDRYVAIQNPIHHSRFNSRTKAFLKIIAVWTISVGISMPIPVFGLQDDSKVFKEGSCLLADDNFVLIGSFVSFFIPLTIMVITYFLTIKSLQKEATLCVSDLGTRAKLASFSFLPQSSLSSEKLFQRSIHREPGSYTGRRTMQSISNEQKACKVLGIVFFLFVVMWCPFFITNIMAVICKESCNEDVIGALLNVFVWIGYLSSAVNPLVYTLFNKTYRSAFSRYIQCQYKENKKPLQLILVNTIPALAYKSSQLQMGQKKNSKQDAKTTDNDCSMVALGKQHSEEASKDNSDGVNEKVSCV
Entries and their measured Ki follow.

- input_smiles: "COc1cccc(N2CCN(CCCCCCN3C(=O)c4ccccc4S3(=O)=O)CC2)c1"
  subject_of_test: "5-hydroxytryptamine receptor 2A (Homo sapiens, UniProt P28223)"
  Ki, nM: 342
- input_smiles: "O=C1c2ccccc2S(=O)(=O)N1CCCCCCN1CCN(c2ccccc2)CC1"
  subject_of_test: "5-hydroxytryptamine receptor 2A (Homo sapiens, UniProt P28223)"
  Ki, nM: 321
- input_smiles: "O=C1c2ccccc2S(=O)(=O)N1CCCCCCN1CCN(c2cccc(C(F)(F)F)c2)CC1"
  subject_of_test: "5-hydroxytryptamine receptor 2A (Homo sapiens, UniProt P28223)"
  Ki, nM: 167
- input_smiles: "O=C1c2ccccc2S(=O)(=O)N1CCCCCCN1CCN(c2ccc(Cl)c(Cl)c2)CC1"
  subject_of_test: "5-hydroxytryptamine receptor 2A (Homo sapiens, UniProt P28223)"
  Ki, nM: 283
- input_smiles: "O=C1c2ccccc2S(=O)(=O)N1CCCCCCN1CCN(c2ccccn2)CC1"
  subject_of_test: "5-hydroxytryptamine receptor 2A (Homo sapiens, UniProt P28223)"
  Ki, nM: 1290
